Measured IC50 values are reported for all entries that follow.
- measurement-target: Human ATX protein (Homo sapiens, UniProt Q13822)
- Construct: made in house
- assay-protocol: ATX biochemical FRET assay with FS-3 substrate
- conditions: FS-3 2 μM, ATX 1.0 μg/mL, binned table, read-out: IC50 (μm)

Consider the following illustrative entries.
- entry-smiles: "C[C@H]1CC[C@@H](Oc2ccc3cccc(CN4CCC(C(=O)O)CC4)c3c2C(F)(F)F)CC1"
  measurement-target: "Human ATX protein (Homo sapiens, UniProt Q13822)"
  measured: "500 to 5000 nM"
- entry-smiles: "C[C@H]1CC[C@@H](Oc2ccc3c(CNC4(C(=O)O)CCCCC4)cccc3c2C(F)(F)F)CC1"
  measurement-target: "Human ATX protein (Homo sapiens, UniProt Q13822)"
  measured: "> 5000 nM"
- entry-smiles: "C[C@H]1CC[C@@H](Oc2ccc3c(CNCCCCC(=O)O)cccc3c2C(F)(F)F)CC1"
  measurement-target: "Human ATX protein (Homo sapiens, UniProt Q13822)"
  measured: "500 to 5000 nM"
- entry-smiles: "O=C(O)CCCCNCc1cccc2c(C(F)(F)F)c(O[C@H]3CC[C@@H](C(F)(F)F)CC3)ccc12"
  measurement-target: "Human ATX protein (Homo sapiens, UniProt Q13822)"
  measured: "500 to 5000 nM"
- entry-smiles: "C[C@H]1CC[C@@H](Oc2ccc3c(CNCCCC(=O)O)cccc3c2C(F)(F)F)CC1"
  measurement-target: "Human ATX protein (Homo sapiens, UniProt Q13822)"
  measured: "< 500 nM"
- entry-smiles: "O=C(O)CCCNCc1cccc2c(C(F)(F)F)c(O[C@H]3CC[C@@H](C(F)(F)F)CC3)ccc12"
  measurement-target: "Human ATX protein (Homo sapiens, UniProt Q13822)"
  measured: "< 500 nM"
- entry-smiles: "C[C@H]1CC[C@@H](Oc2ccc3c(CNCCC(=O)O)cccc3c2C(F)(F)F)CC1"
  measurement-target: "Human ATX protein (Homo sapiens, UniProt Q13822)"
  measured: "< 500 nM"

GET /values?readout=IC50&item= `C[C@H]1CC[C@@H](Oc2ccc3c(CNCC(=O)O)cccc3c2C(F)(F)F)CC1` 500 to 5000 nM

Data origin: patent US9499485B2
